molecular target: FAM19A5 protein (Homo sapiens, UniProt Q7Z5A7); test: competitive inhibition ELISA, 20 nM peptide, rFAM19A5 1 ng/mL; competitor: coated LRRC4B(453-576)-hFc
Each entry below carries its reported Inhibition rate (%).
measured-property: Inhibition rate (%)

KNYTYFTTVNKETQ [FB-m7dC]	0.4
KNTYFTTVTVETNKETQ [FB-m10dN]	0
KNTTVTVETNKETQ [FB-m7dN]	-1.8
KNYTYFTTVTVETNKETQ [FB-m11dC]	30.4

These measurements were taken from patent US20240238445A1.
